target: Beta-2 adrenergic receptor (Homo sapiens, UniProt P07550)
Sequence (P07550 whole entry): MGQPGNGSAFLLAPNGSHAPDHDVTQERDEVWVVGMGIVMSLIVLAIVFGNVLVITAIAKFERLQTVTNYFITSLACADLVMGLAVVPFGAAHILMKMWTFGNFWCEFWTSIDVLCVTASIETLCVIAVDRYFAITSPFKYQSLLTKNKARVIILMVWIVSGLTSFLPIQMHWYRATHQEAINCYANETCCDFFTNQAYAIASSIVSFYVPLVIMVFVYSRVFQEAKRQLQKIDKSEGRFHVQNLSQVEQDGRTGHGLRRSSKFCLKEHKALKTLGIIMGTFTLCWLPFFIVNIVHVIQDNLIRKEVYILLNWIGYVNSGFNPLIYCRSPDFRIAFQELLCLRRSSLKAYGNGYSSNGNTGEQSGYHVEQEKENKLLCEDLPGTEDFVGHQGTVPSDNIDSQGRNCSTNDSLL
Parameter pKd: see the listing below.
# reply with the number alone; pKd is -log10 of concentration in mol/L

* CC(C)NCC(O)c1cc(O)cc(O)c1 (configuration not stated) [METAPROTERENOL] | 6.30

Turning now to a further compound:
Give Beta-2 adrenergic receptor (Homo sapiens, UniProt P07550) pKd for CCC(NC1CCCC1)C(O)c1ccc(O)c(O)c1 (configuration not stated) [CYCLOPENTYLBUTANEPHARINE] 8.00

###

test system: RPT; experiment: Induction of Mitochondrial biogenesis in rabbit RPT cells at 10 to 3000 nM after 24 hrs by FCCP-OCR assay relative to control; assay type: functional, cell-based; conditions: Oryctolagus cuniculus
Activity calls are given as the source filed them. The calls are words filed in the database; no cut-off is given here.
Readout name: Activity

Some solved cases for reference:
• CCC(NC(C)C)C(O)c1ccc(O)c2[nH]c(=O)ccc12 (configuration not stated) = Active
• CC(C)NCC(O)c1ccc(O)c(O)c1 (configuration not stated) = inactive
• CNCC[C@@H](Oc1ccccc1C)c1ccccc1 = Active
• CC(Cc1ccc(O)cc1)NCC(O)c1cc(O)cc(O)c1 (configuration not stated) = Active
• CCC(NC(C)C)C(O)c1ccc(O)c(O)c1 (configuration not stated) = inactive

What Activity value was documented for this molecule, CNCCC(Oc1ccccc1OC)c1ccccc1 (configuration not stated) ? Active

What Activity value was documented for this molecule, CC(C)(C)NCC(O)c1cc(Cl)c(N)c(Cl)c1 (configuration not stated) ? inactive
